FYI, the data here is from ChEMBL document CHEMBL1697781.

- System: Hepatotoxicity
- method: FDA HLAED, liver enzyme composite activity
- measurement_context: human
measure: Composite Activity - Score

C[C@@H]1CN([C@H]2CC[C@](C#N)(c3ccc(F)cc3)CC2)CC[C@]1(C(=O)O)c1ccccc1 ... Inactive
CCOC(=O)C1=C(C)NC(C)=C(C(=O)OC)C1c1cccc(Cl)c1Cl (stereo unspecified) ... Inactive
CN1C2CCCC1CC(NC(=O)c1nn(C)c3ccccc13)C2 (stereo unspecified) ... Inactive
Nc1nc2ccc(OC(F)(F)F)cc2s1 ... Inactive
Nc1nnc(-c2cccc(Cl)c2Cl)c(N)n1 ... Active
Nc1ncnc2c1ncn2[C@@H]1O[C@H](CO)[C@@H](O)[C@H]1O ... Inactive
CCC1=C[C@@H]2CN(C1)Cc1c([nH]c3ccccc13)[C@@](C(=O)OC)(c1cc3c(cc1OC)N(C)[C@H]1[C@@](O)(C(=O)OC)[C@H](OC(C)=O)[C@]4(CC)C=CCN5CC[C@]31[C@@H]54)C2 ... Inactive
CCOC(=O)[C@H](CCc1ccccc1)N[C@@H](C)C(=O)N1[C@H](C(=O)O)C[C@H]2CCCC[C@@H]21 ... Inactive
CCCCC(C)(O)C/C=C/[C@H]1[C@H](O)CC(=O)[C@@H]1CCCCCCC(=O)OC (stereo partly specified) ... Inactive
CC(C)(C)c1ccc(C(O)CCCN2CCC(C(O)(c3ccccc3)c3ccccc3)CC2)cc1 (stereo unspecified) ... Inactive
CCn1cc(C(=O)O)c(=O)c2cc(F)c(N3CCNCC3)nc21 ... Inactive
NC(=O)OCC(COC(N)=O)c1ccccc1 [FELBAMATE] ... Active
Oc1ccc2c3c1O[C@H]1[C@@H](O)CC[C@@]4(O)[C@@H](C2)N(CC2CCC2)CC[C@]314 ... Inactive
C[C@H](CCC(=O)O)[C@H]1CC[C@H]2[C@@H]3[C@@H](O)C[C@@H]4C[C@H](O)CC[C@]4(C)[C@H]3CC[C@]12C ... Active
CCc1c2c(nc3ccc(OC(=O)N4CCC(N5CCCCC5)CC4)cc13)-c1cc3c(c(=O)n1C2)COC(=O)[C@]3(O)CC ... Inactive
CN(Cc1cnc2nc(N)nc(N)c2n1)c1ccc(C(=O)N[C@@H](CCC(=O)O)C(=O)O)cc1 [METHOTREXATE] ... Active
